- System: Capan-1 cells
- Test: Chemotherapeutic sensitivity of Capan-1 cells on extracellular matrices with anti-LOXL2 antibody
- Type: cell-based
- Test parameters: Capan-1 cells plated on different extracellular matrices
Readout type: sensitivity of cells to the chemotherapeutic in the presence of anti-LOXL2 antibodies

Some entries whose results are on file:
[[record]]
structure_notation = "O=c1[nH]cc(F)c(=O)[nH]1"
result = "increased sensitivity"

[[record]]
structure_notation = "Nc1ccn([C@@H]2O[C@H](CO)[C@@H](O)C2(F)F)c(=O)n1"
result = "increased sensitivity"

[[record]]
structure_notation = "CC(=O)O[C@@]12CO[C@@H]1C[C@H](O)[C@@]1(C)C(=O)[C@H](O)C3=C(C)[C@@H](OC(=O)[C@H](O)[C@@H](NC(=O)OC(C)(C)C)c4ccccc4)C[C@@](O)([C@@H](OC(=O)c4ccccc4)[C@H]21)C3(C)C"
result = "increased sensitivity"

[[record]]
structure_notation = "C#Cc1cccc(Nc2ncnc3cc(OCCOC)c(OCCOC)cc23)c1"
result = "increased sensitivity"


API: the following record is the query input.
Task: Please look up its sensitivity of cells to the chemotherapeutic in the presence of anti-LOXL2 antibodies: COc1cccc2c1C(=O)c1c(O)c3c(c(O)c1C2=O)C[C@@](O)(C(=O)CO)C[C@@H]3O[C@H]1C[C@H](N)[C@H](O)[C@H](C)O1
Output: increased sensitivity
